# System tested: Mothers against decapentaplegic homolog 3 (Homo sapiens) (UniProt P84022)
# Sequence (P84022 whole entry, looked up): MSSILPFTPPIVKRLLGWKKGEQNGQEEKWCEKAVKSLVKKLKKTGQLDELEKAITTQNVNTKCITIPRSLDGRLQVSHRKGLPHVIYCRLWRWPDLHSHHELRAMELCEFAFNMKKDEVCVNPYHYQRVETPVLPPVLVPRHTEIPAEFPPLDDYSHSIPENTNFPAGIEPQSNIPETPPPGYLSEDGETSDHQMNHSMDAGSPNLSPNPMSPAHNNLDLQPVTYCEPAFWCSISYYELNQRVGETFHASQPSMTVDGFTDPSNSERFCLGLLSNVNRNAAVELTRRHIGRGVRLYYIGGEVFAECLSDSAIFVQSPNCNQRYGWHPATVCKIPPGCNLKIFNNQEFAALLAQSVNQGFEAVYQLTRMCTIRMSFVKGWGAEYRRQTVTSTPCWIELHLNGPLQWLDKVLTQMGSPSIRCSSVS
# Measurement notes: blockers of Smad3 binding to FoxH1 – biochemical, TR-FRET, primary screen (AID 630);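 further: 0% = Smad3 plus labelled peptide maximal FRET and 100% = peptide-only background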
# Applied conditions: TR-FRET Smad3/Dy647-FoxH1 peptide binding, europium anti-His; at 25 µM; hits give high values
In all, about 88,000 compounds went through this assay and about 260 (0.3%) were called active. Many of the other results were omitted from the sample, so actives are more common in it than they were.
Measured inhibition, listed per entry.
Value expressed in %; do not type the unit.

The following compounds have reported results that may help.
Compound	Readout type	Readout number
Cc1ccc(-c2nc3ccccc3[nH]2)cc1N	inhibition	10.8
Cc1ccc(-c2cnc(NC(=O)CCC(=O)N(C)Cc3ccccc3)n2C)cc1	inhibition	8.43

Query :: So what does the record say about inhibition for C=CCC(NCc1ccco1)c1ccc(OC)cc1 (stereo not drawn) ?
Result :: 2.67

---

# System tested: Mothers against decapentaplegic homolog 3 (Homo sapiens)
# Measurement notes: blockers of Smad3 binding to FoxH1 – biochemical, TR-FRET, primary screen (AID 630)
# Applied conditions: TR-FRET Smad3/Dy647-FoxH1 peptide binding, europium anti-His; at 25 µM; hits give high values
The whole screen tested about 88,000 compounds, of which about 260 (0.3%) were called active. The full list was thinned out, with actives kept by preference.
Measured inhibition, listed per entry.
Value expressed in %; do not type the unit.

Compound	Unit string	inhibition
COC(=O)c1ccc(NC(=O)C23CC4CC(C2)CC(n2cnc(Cl)n2)(C4)C3)cc1	%	4.51
O=C(NC1(C(F)(F)F)NC(=O)N(Cc2cccnc2)C1=O)c1ccccc1Cl (stereo not given)	%	40.1
FC(F)(F)c1ccc2nnc(-c3c(Cl)cccc3Cl)n2c1	%	-1.74
O=C(Cc1c[nH]c2ccccc12)OCCOC(=O)Cc1c[nH]c2ccccc12	%	0.81

Continue with the next compound.
Query :: So what does the record say about inhibition for `Cc1cccn2c(=O)c(/C=C(\C#N)S(=O)(=O)c3ccc(Cl)cc3)c(N3CCC(C(N)=O)CC3)nc12` ?
Result :: 0.22

---

# System tested: Mothers against decapentaplegic homolog 3 (Homo sapiens) (UniProt P84022)
# Measurement notes: blockers of Smad3 binding to FoxH1 – biochemical, TR-FRET, primary screen (AID 630)
# Applied conditions: TR-FRET Smad3/Dy647-FoxH1 peptide binding, europium anti-His; at 25 µM; hits give high values
About 260 (0.3%) of roughly 88,000 compounds were called active. This excerpt belongs to a sample that is enriched for actives.
Measured inhibition, listed per entry.
Value expressed in %; do not type the unit.

The following compounds have reported results that may help.
Compound	Readout number
COC(=O)c1cc(NC(=O)CC2C(=O)NCCN2C(=O)c2ccc(F)cc2)cc(C(=O)OC)c1 (stereo unspecified)	-2.76
O=C(O)c1c(Br)c(Br)c(Br)c(Br)c1C1c2ccc(O)cc2Oc2cc(O)ccc21	93.1
Cc1ccnc(NC(=O)c2ccc(NC(=O)c3ccco3)cc2)c1	8.59
O=C(Nc1ccc(Oc2ccccc2)cc1)c1ccco1	-3.88
CCCCN1C(=O)CC(N2CCOCC2)C1=O (stereo unspecified)	-0.67

Query :: So what does the record say about inhibition for `C=CCO/N=C(\C)c1c(O)c(C)c(-c2ccccc2)n(-c2ccccc2)c1=O` ?
Result :: 0.29

---

# System tested: Mothers against decapentaplegic homolog 3 (Homo sapiens)
# Measurement notes: blockers of Smad3 binding to FoxH1 – biochemical, TR-FRET, primary screen (AID 630);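 further: 0% = Smad3 plus labelled peptide maximal FRET and 100% = peptide-only background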
# Applied conditions: TR-FRET Smad3/Dy647-FoxH1 peptide binding, europium anti-His; at 25 µM; hits give high values
In all, about 88,000 compounds went through this assay and about 260 (0.3%) were called active. For the sample, actives were picked, then their nearest neighbours and some compounds at random.
Readout type: inhibition (%)
Value expressed in %; do not type the unit.

The following compounds have reported results that may help.
Compound	System tested	inhibition / %
Cc1cc(NC(=O)CS(=O)(=O)c2cn(C)c3ccccc23)no1	Mothers against decapentaplegic homolog 3 (Homo sapiens)	-0.74
CN(C)c1ccc(CNC2C3CC4CC(C3)CC2C4)cc1 (stereo not drawn)	Mothers against decapentaplegic homolog 3 (Homo sapiens)	8.16
CCOc1ccc(S(=O)(=O)NCC2CCCO2)cc1 (stereo not drawn)	Mothers against decapentaplegic homolog 3 (Homo sapiens)	-12
CS(=O)(=O)c1ccc(/C=N/NC(N)=S)cc1	Mothers against decapentaplegic homolog 3 (Homo sapiens)	20.2
CC(C)(C)c1ccc(C(=O)NCC(=O)OCN2C(=O)c3ccccc3C2=O)cc1	Mothers against decapentaplegic homolog 3 (Homo sapiens)	-15.4

Query :: So what does the record say about inhibition for `CC(=O)C1=C(C)NC(C)=C(C(C)=O)C1c1cn(-c2ccccc2)nc1-c1cccs1` ?
Result :: -6.06

Query :: So what does the record say about inhibition for `Cc1ccc(/C=N/NC(=O)Cn2nc(C)c(Br)c2C)o1` ?
Result :: 21.4

Query :: So what does the record say about inhibition for Cc1ccc(C2NC(=S)NC3=C2N2CCC3CC2)cc1 (stereo not drawn) ?
Result :: 2.12

Query :: So what does the record say about inhibition for `CC1CCN(C(=O)c2cc3nc(C4CC4)cc(C(F)(F)F)n3n2)CC1` ?
Result :: 6.46

Query :: So what does the record say about inhibition for CCC(CC)C(=O)N1CC(=O)Nc2ccc(Br)cc2C1c1ccccc1 (stereo not drawn) ?
Result :: 1.61

Query :: So what does the record say about inhibition for Cc1ccc(-c2cc(C(=O)NCC3CCCO3)c3ccccc3n2)o1 (stereo not drawn) ?
Result :: 0.54

Query :: So what does the record say about inhibition for `CCOC(=O)NC(C(F)(F)F)(C(F)(F)F)P(=O)(c1ccccc1)c1ccccc1` ?
Result :: 6.78

Query :: So what does the record say about inhibition for `Cn1cc(S(=O)(=O)N2CCN(c3ccc(F)cc3)CC2)c(=O)n(C)c1=O` ?
Result :: -0.19

Query :: So what does the record say about inhibition for `COc1ccc(S(=O)(=O)Nc2ccc(F)cc2)c(C)c1C` ?
Result :: -18.5

Query :: So what does the record say about inhibition for O=C(C1=C(O)C(=O)N(Cc2ccccc2)C1c1ccco1)c1ccco1 (stereo not drawn) ?
Result :: 12.4

---

# System tested: Mothers against decapentaplegic homolog 3 (Homo sapiens) (UniProt P84022)
# Measurement notes: blockers of Smad3 binding to FoxH1 – biochemical, TR-FRET, primary screen (AID 630);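 further: 0% = Smad3 plus labelled peptide maximal FRET and 100% = peptide-only background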
# Applied conditions: TR-FRET Smad3/Dy647-FoxH1 peptide binding, europium anti-His; at 25 µM; hits give high values
Among all 88,000 compounds or so, about 260 (0.3%) were called active. Shown is part of a subset that was picked to be rich in actives.
Readout type: inhibition (%)
Value expressed in %; do not type the unit.

Compound	Unit string	inhibition
Cc1cc(S(=O)(=O)NC2CCCCC2)ccc1OCC(=O)NCc1cccnc1	%	8.87

Query :: So what does the record say about inhibition for `C[C@H]1O[C@@H](CC(=O)O)Cc2c1c(O)c1c(O)cc(-c3cc(=O)c4c(=O)c5c(c(=O)c=4c3=O)C[C@H](CC(=O)O)O[C@@H]5C)c(O)c1c2O` ?
Result :: 95.5

Query :: So what does the record say about inhibition for OC(COc1ccc2ccccc2c1)Cn1cncn1 (stereo not given) ?
Result :: 6.06

Query :: So what does the record say about inhibition for `O=S1(=O)C=C(SCCN2CCCC2)c2ccccc21` ?
Result :: 17.4

Query :: So what does the record say about inhibition for `Cc1ccccc1CSCCNC(=O)c1ccc(Cl)c(S(=O)(=O)N2CCOCC2)c1` ?
Result :: 4.77

Query :: So what does the record say about inhibition for `COc1ccc(C2(CNC(=O)C(c3ccccc3)c3ccccc3)CCOCC2)cc1OC` ?
Result :: 3.2

Query :: So what does the record say about inhibition for CCN1C(=O)C(CC(=O)Nc2cc(C)ccc2C)SC1=Nc1ccc(S(N)(=O)=O)cc1 (stereo not given) ?
Result :: -12.6

---

Measured inhibition, listed per entry.
# System tested: Mothers against decapentaplegic homolog 3 (Homo sapiens) (UniProt P84022)
# Measurement notes: blockers of Smad3 binding to FoxH1 – biochemical, TR-FRET, primary screen (AID 630);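 further: 0% = Smad3 plus labelled peptide maximal FRET and 100% = peptide-only background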
# Applied conditions: TR-FRET Smad3/Dy647-FoxH1 peptide binding, europium anti-His; at 25 µM; hits give high values
Screen size: about 88,000 compounds; about 260 (0.3%) were called active. This excerpt belongs to a sample that is enriched for actives.
Value expressed in %; do not type the unit.

The following molecules have reported results that may help.
Molecule	inhibition / %
CCCCOc1ccc(N(CC(=O)NCC2CCCO2)C(=O)CCC(=O)Nc2cc(C)ccn2)cc1 (stereo not given)	2.38
COc1ccc(C2=NO[C@@H]3C(=O)N(Cc4ccccc4)C(=O)[C@H]23)cc1OC	4.9
CC1(CC(=O)O)O[C@@H]2CCCCC[C@H]2O1 (tested in a mixture with another compound)	14
COc1ccc(C(=O)OCC(=O)NCC2CCCCC2)cc1S(=O)(=O)N1CCCc2ccccc21	0.19
CC(C)(C)NC(=O)CN(Cc1cccs1)C(=O)CNS(=O)(=O)c1ccccc1	-8.34
N#C/C(=C\c1ccccc1)c1n[nH]c(Cn2cncn2)n1	8.55
CCOC(=O)c1ccc2c(c1)nc(SCC(=O)NC(C)C)n2CC	20
O=C(c1cccc(N2CCCC2=O)c1)N1CCOCC1	-6
COc1ccc(NC(=O)C(CC(C)C)NS(=O)(=O)c2ccc3c(c2)CCN3C(C)=O)cc1OC (stereo not given)	2.09

Query :: So what does the record say about inhibition for `O=C(N/N=C/c1ccc(O)cc1)/C(=C/c1ccc([N+](=O)[O-])cc1)NC(=O)c1ccccc1` ?
Result :: -3.81
